FYI, the data here is from PubChem BioAssay (NCI).

growth overview
# Tested on: SW-620 colon
# measurement.notes: NCI-60 one-dose screen, 48 h (100 = growth as untreated, 0 = no growth, -100 = all killed)
# conditions.used: 10 µM unless noted
The panel holds about 83,000 compounds, 20% with a hit somewhere; the sample as a whole holds those more often.
measure.name: growth (%)

compound	assay.target	data.value
CC[C@@]12C=CCN3CC[C@]4(c5cc(NC(=O)COc6cc(OCC(=O)Nc7cc8c(cc7OC)N(C)[C@H]7[C@@](O)(C(=O)OC)[C@H](OC(C)=O)[C@]9(CC)C=CCN%10CC[C@]87[C@@H]%109)cc7oc(-c8ccccc8)cc(=O)c67)c(OC)cc5N(C)[C@@H]4[C@](O)(C(=O)OC)[C@H]1OC(C)=O)[C@H]32	SW-620 colon	20.3
N#Cc1ccc(-c2ccc3c(c2)NC(=O)/C3=C\c2ccc[nH]2)cc1	SW-620 colon	102
Clc1ccc(C2CC(c3cccc(Nc4ccncc4)c3)=NN2c2ccccc2)cc1 (configuration not stated)	SW-620 colon	-79.8
CC(=O)OCC(=O)[C@@]1(O)CC[C@H]2[C@@H]3CC(=C(Br)Br)C4=CC(=O)CC[C@]4(C)[C@H]3C(=O)C[C@@]21C	SW-620 colon	95.3
Nc1ccccc1NC(=O)c1ccc(CN2CCC/C(=C\c3cccc(Cl)c3)C2=O)cc1	SW-620 colon	23.9
O=C(O)CCCCCCCCCCCCCCC(=O)O	SW-620 colon	109
COc1ccc(/C=C/C(=O)c2ccc(OC)c(OC)c2)cc1O	SW-620 colon	17.1
O=C(NNc1nc(Cl)nc(N2CCN(C(c3ccccc3)c3ccccc3)CC2)n1)c1ccccc1	SW-620 colon	-40.7
Cc1ccc(C2CC(c3cccc(Nc4ccncc4)c3)=NN2c2ccc(Cl)cc2)cc1 (configuration not stated)	SW-620 colon	-46.9
NC(=S)N/N=C/c1ccc(OC(=O)COc2cc(Cl)c(Cl)cc2Cl)cn1	SW-620 colon	59.6
CCCCCCCC(=O)Nc1nc2[nH]c(CN3CCN(Cc4cccc(I)c4)CC3)c(CN3CCN(Cc4cccc(I)c4)CC3)c2c(=O)[nH]1	SW-620 colon	-73.7
CCOC(=O)N1CCc2c(sc3nc4nc[nH]n4c(=O)c23)C1	SW-620 colon	102
C=C(C)[C@H]1CC/C(C)=C/CC[C@]2(C)O[C@H]2CC/C(COC(=O)[C@@H](OC(C)=O)[C@H](NC(=O)c2ccccc2)c2ccccc2)=C\[C@@H]1O	SW-620 colon	105
CCN(CC)CCCCCCNc1cc(OC)cc2cccnc12	SW-620 colon	-64.5
O=c1[nH]c(=O)[nH]c(=S)[nH]1	SW-620 colon	102
COc1ccc(/C=C\c2nc3ccccc3s2)cc1OP(=O)(O)O	SW-620 colon	23.2
O=C(O)c1cn(C2CC2)c2cc(N3CCN(C(=O)C[n+]4cccc5ccccc54)CC3)c(F)cc2c1=O	SW-620 colon	-17.2
